Source: paper PMC11449324

# Tested on: MOLT-4 cells
# test: MTT cell viability assay, MOLT-4
# Assay type: cell-based, human
# condition_label: Homo sapiens, MOLT-4, 48 h, MTT, biphasic curve (Fig 10A); read-out: first-phase EC50 cell viability
parameter_measured: EC50 (nM)
Use nM as the unit, but write only the number.

Entry under review: Sc1ncnc2nc[nH]c12 . Reported EC50?
700

----------
# assay_system: hENBT1 (Homo sapiens, UniProt Q8NBI5)
# Construct: Oligonucleotides corresponding to the coding region of SLC43A3 (NM_001278201) or slc43a3 (NM_021398); expressed in transfected cells; HEK293-hSLC43A3
# Sequence (Q8NBI5 whole entry): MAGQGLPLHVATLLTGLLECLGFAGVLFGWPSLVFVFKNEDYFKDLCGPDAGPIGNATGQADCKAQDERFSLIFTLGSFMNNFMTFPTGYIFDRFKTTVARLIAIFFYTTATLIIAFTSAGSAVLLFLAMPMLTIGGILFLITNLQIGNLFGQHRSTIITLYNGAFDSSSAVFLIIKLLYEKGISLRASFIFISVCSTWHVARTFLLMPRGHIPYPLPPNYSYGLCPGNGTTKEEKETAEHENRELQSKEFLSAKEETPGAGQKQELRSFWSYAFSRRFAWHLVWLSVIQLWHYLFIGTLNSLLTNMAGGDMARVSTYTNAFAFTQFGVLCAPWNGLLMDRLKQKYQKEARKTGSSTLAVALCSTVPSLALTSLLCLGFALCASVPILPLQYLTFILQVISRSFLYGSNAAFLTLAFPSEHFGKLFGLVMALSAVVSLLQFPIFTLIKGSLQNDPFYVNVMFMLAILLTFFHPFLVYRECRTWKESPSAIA
# test: Inhibition of ENBT1-mediated substrate uptake in HEK293-hSLC43A3 cells
# Type: cell-based
parameter_measured: Ki (µM)
Write the number in µM without appending the unit.

Which value of Ki has been reported for Nc1ncnc2[nH]cnc12 in the records?
25
